test system: human red blood cells (RBCs); assay: Hemolysis assay; format: cell-based; conditions: red cells of human, 1 h, 16
Where a SMILES comes first, the peptide text is derived from it.
PROPERTY_NAME: Percentage of hemolysis at 16 μg/mL (%)
Please give a number only; it is taken to be in %.

Output measured Percentage of hemolysis at 16 μg/mL for this item: CC[C@H](C)[C@H](NC(=O)[C@H](CCCCN)NC(=O)[C@H](CCCCN)NC(=O)[C@@H](NC(=O)[C@@H](NC(=O)[C@H](CC(=O)O)NC(=O)[C@H](C)NC(=O)[C@H](CC(C)C)NC(=O)CN)[C@@H](C)CC)[C@@H](C)CC)C(=O)N[C@@H](C)C(=O)N[C@@H](CCC(=O)O)C(=O)N[C@@H](CO)C(=O)N[C@@H](Cc1ccccc1)C(N)=O [Peptide F3A] (H-GLADIIKKIAESF-NH2)
0.0

---

Measured Percentage of hemolysis at 128 μg/mL of individual entries
test system: human red blood cells (RBCs); assay: Hemolysis assay; format: cell-based; details: red cells of human, 1 h, 128
Where a SMILES comes first, the peptide text is derived from it.
Supply the numeric figure in %, leaving out any unit text.

The cases that follow already have their Percentage of hemolysis at 128 μg/mL on record.
CC[C@H](C)[C@H](NC(=O)[C@H](CCCCN)NC(=O)[C@H](CCCCN)NC(=O)[C@H](C)NC(=O)[C@@H](NC(=O)[C@H](CC(=O)O)NC(=O)[C@H](Cc1ccccc1)NC(=O)[C@H](CC(C)C)NC(=O)CN)[C@@H](C)CC)C(=O)N[C@@H](C)C(=O)N[C@@H](CCC(=O)O)C(=O)N[C@@H](CO)C(=O)N[C@@H](Cc1ccccc1)C(N)=O [Peptide I6A] (H-GLFDIAKKIAESF-NH2) = 0.1
CC[C@H](C)[C@H](NC(=O)[C@H](CCCCN)NC(=O)[C@H](CCCCN)NC(=O)[C@@H](NC(=O)[C@@H](NC(=O)[C@H](CC(=O)O)NC(=O)[C@H](Cc1ccccc1)NC(=O)[C@H](CC(C)C)NC(=O)CN)[C@@H](C)CC)[C@@H](C)CC)C(=O)N[C@@H](C)C(=O)N[C@@H](CCC(=O)O)C(=O)N[C@@H](CO)C(=O)N[C@@H](Cc1ccccc1)C(N)=O [aurein 1.2] (H-GLFDIIKKIAESF-NH2) = 19.2
CC[C@H](C)[C@H](NC(=O)[C@H](CCCCN)NC(=O)[C@H](CCCCN)NC(=O)[C@@H](NC(=O)[C@@H](NC(=O)[C@H](CC(=O)O)NC(=O)[C@H](Cc1ccccc1)NC(=O)[C@H](CC(C)C)NC(=O)CN)[C@@H](C)CC)[C@@H](C)CC)C(=O)N[C@@H](C)C(=O)N[C@@H](CCC(=O)O)C(=O)N[C@@H](C)C(=O)N[C@@H](Cc1ccccc1)C(N)=O [Peptide S12A] (H-GLFDIIKKIAEAF-NH2) = 15.4

Note down Percentage of hemolysis at 128 μg/mL recorded for CC[C@H](C)[C@H](NC(=O)[C@H](CCCCN)NC(=O)[C@H](CCCCN)NC(=O)[C@@H](NC(=O)[C@@H](NC(=O)[C@H](CC(=O)O)NC(=O)[C@H](C)NC(=O)[C@H](CC(C)C)NC(=O)CN)[C@@H](C)CC)[C@@H](C)CC)C(=O)N[C@@H](C)C(=O)N[C@@H](CCC(=O)O)C(=O)N[C@@H](CO)C(=O)N[C@@H](Cc1ccccc1)C(N)=O [Peptide F3A] (H-GLADIIKKIAESF-NH2)
0.0

For the compound CC[C@H](C)[C@H](NC(=O)[C@H](CC(=O)O)NC(=O)[C@H](Cc1ccccc1)NC(=O)[C@H](CC(C)C)NC(=O)CN)C(=O)N[C@H](C(=O)N[C@@H](CCCCN)C(=O)N[C@@H](CCCCN)C(=O)N[C@@H](C)C(=O)N[C@@H](C)C(=O)N[C@@H](CCC(=O)O)C(=O)N[C@@H](CO)C(=O)N[C@@H](Cc1ccccc1)C(N)=O)[C@@H](C)CC [Peptide I9A] (H-GLFDIIKKAAESF-NH2) , give its measured Percentage of hemolysis at 128 μg/mL value.
0.0
